- assaySystem: Signal peptide peptidase-like 2A (Homo sapiens, UniProt Q8TCT8)
- Sequence (Q8TCT8 whole entry): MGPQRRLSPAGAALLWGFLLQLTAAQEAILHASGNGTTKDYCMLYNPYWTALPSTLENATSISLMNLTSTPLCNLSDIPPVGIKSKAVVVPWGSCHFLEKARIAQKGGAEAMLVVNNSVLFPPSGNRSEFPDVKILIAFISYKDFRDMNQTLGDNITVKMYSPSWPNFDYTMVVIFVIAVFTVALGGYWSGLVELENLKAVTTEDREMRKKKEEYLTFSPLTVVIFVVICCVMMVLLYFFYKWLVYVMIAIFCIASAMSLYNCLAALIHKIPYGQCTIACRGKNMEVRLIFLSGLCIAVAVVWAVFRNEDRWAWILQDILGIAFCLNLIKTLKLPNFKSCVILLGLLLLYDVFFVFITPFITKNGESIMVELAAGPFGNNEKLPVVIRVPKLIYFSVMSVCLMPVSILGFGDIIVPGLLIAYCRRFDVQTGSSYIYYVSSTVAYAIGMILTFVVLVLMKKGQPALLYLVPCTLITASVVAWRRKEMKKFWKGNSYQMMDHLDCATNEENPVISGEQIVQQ
- measurementProtocol: Inhibition of human SPPL2A expressed in human U2OS cells assessed as nuclear mask transferring to EGFP channel using EGFP-labeled TNFalpha (aa1-76) NTF as substrate and measured after 24 hrs by Hoechst staining based translocation assay
recordedEndpoint: IC50 (nM)
Numbers only; they are read as nM.

For `CC(C)C(=O)Nc1nc(Cl)c(NC(=O)C[C@@H](C)C(=O)N[C@@H]2C(=O)N3CCCN3Cc3ccccc32)s1` , write its IC50.
1
